Tested on: HCT-116
Assay: MTT cytotoxicity assay
Type: cell-based, human
Conditions: 48 h drug exposure
property-measured: IC50 (µM)
Report the figure in µM without appending any unit label.

INPUT: // query IC50 value for entry CC(C)C[NH+]1[C@@H]2CCCC[C@H]2[NH+](CC(C)C)[Pt-2]12[O]C(=O)CC(=O)[O]2 (stereo partly drawn) [Complex 3]
OUTPUT: 38.6

INPUT: Request: CC(C)C[NH+]1[C@@H]2CCCC[C@H]2[NH+](CC(C)C)[Pt-2]1([Cl])[Cl] (stereo partly drawn) [Complex 1]
OUTPUT: 70.5

INPUT: Request: O=C1[O][Pt]2([NH][C@@H]3CCCC[C@H]3[NH]2)[O]C1=O [Oxaliplatin, oxaliplatin, reference compound]
OUTPUT: 19.1

INPUT: Request: CC(C)CN[C@@H]1CCCC[C@H]1N.O=C([O-])CC(=O)[O-].[Pt+2] [Complex 3a, reference compound]
OUTPUT: 65.8

INPUT: Request: CC(C)C[NH+]1[C@@H]2CCCC[C@H]2[NH+](CC(C)C)[Pt-2]12[O]C(=O)C(=O)[O]2 (stereo partly drawn) [Complex 2]
OUTPUT: 37

Reference source for all entries: paper PMC5458179
